Reference source: ChEMBL document CHEMBL2413072

System: RPMI-8226
ASSAY TEXT: Growth inhibition of human RPMI8226 cells by sulforhodamine B assay
Assay type: functional
MEASUREMENT CONDITIONS: read-out: pGI50 (converted)
GI50 overview

# CHEM SMILES, GI50 [nM]
records = [
    ("CC(C)=CC(=O)O[C@@H]1CC(C)(C)C[C@H]2C3=CC[C@@H]4[C@@]5(C)CC[C@H](O)C(C)(C)[C@@H]5CC[C@@]4(C)[C@]3(C)CC[C@@]12C(=O)O", 2450),
    ("CC1(C)C[C@@H](O)[C@]2(C(=O)O)CC[C@]3(C)C(=CC[C@@H]4[C@@]5(C)C/C(=C\\C=C\\c6ccccc6)C(=O)C(C)(C)[C@@H]5CC[C@]43C)[C@@H]2C1", 2570),
    ("C/C=C(/C)C(=O)O[C@@H]1CC(C)(C)C[C@H]2C3=CC[C@@H]4[C@@]5(C)CCC(=O)C(C)(C)[C@@H]5CC[C@@]4(C)[C@]3(C)CC[C@@]12C(=O)O", 2000),
    ("CC(C)=CC(=O)O[C@@H]1CC(C)(C)C[C@H]2C3=CC[C@@H]4[C@@]5(C)CCC(=O)C(C)(C)[C@@H]5CC[C@@]4(C)[C@]3(C)CC[C@@]12C(=O)O", 1480),
    ("C/C=C(/C)C(=O)O[C@@H]1CC(C)(C)C[C@H]2C3=CC[C@@H]4[C@@]5(C)CC[C@H](O)C(C)(C)[C@@H]5CC[C@@]4(C)[C@]3(C)CC[C@@]12C(=O)O", 1860),
]

----------
ASSAY TEXT: Growth inhibition of human EKVX cells assessed as growth inhibition at 10 uM by sulforhodamine B assay
Type: functional
MEASUREMENT CONDITIONS: read-out: GI

# COMPOUND, inhibition of growth at 10 µM / %
data = [
    ("C/C=C(/C)C(=O)O[C@@H]1CC(C)(C)C[C@H]2C3=CC[C@@H]4[C@@]5(C)CCC(=O)C(C)(C)[C@@H]5CC[C@@]4(C)[C@]3(C)CC[C@@]12C(=O)O [LANTADENE A]", 50.7),
    ("CC(C)=CC(=O)O[C@@H]1CC(C)(C)C[C@H]2C3=CC[C@@H]4[C@@]5(C)CCC(=O)C(C)(C)[C@@H]5CC[C@@]4(C)[C@]3(C)CC[C@@]12C(=O)O", 58.8),
    ("COc1cc(/C=C2\\C[C@]3(C)[C@H]4CC=C5[C@@H]6CC(C)(C)C[C@@H](O)[C@]6(C(=O)O)CC[C@@]5(C)[C@]4(C)CC[C@H]3C(C)(C)C2=O)ccc1O", 11.5),
]

----------
growth at 10 µM overview
System: A549
ASSAY TEXT: Growth inhibition of human A549/ATCC cells assessed as cell growth at 10 uM by sulforhodamine B assay
Assay type: functional
MEASUREMENT CONDITIONS: read-out: Activity

# CHEM SMILES, growth at 10 µM [%]
measured = [
    ("CC1(C)C[C@@H](O)[C@]2(C(=O)O)CC[C@]3(C)C(=CC[C@@H]4[C@@]5(C)CC[C@H](O)C(C)(C)[C@@H]5CC[C@]43C)[C@@H]2C1", 87.5),
    ("C/C=C(/C)C(=O)O[C@@H]1CC(C)(C)C[C@H]2C3=CC[C@@H]4[C@@]5(C)CC[C@H](O)C(C)(C)[C@@H]5CC[C@@]4(C)[C@]3(C)CC[C@@]12C(=O)O", 27.4),
    ("CC1(C)C[C@@H](O)[C@]2(C(=O)O)CC[C@]3(C)C(=CC[C@@H]4[C@@]5(C)CCC(=O)C(C)(C)[C@@H]5CC[C@]43C)[C@@H]2C1", 79),
]

----------
ASSAY TEXT: Growth inhibition of human Hs 578T cells assessed as growth inhibition at 10 uM by sulforhodamine B assay
Type: functional
MEASUREMENT CONDITIONS: read-out: GI

# COMPOUND, UNITS LABEL, PREFIX OPERATOR, inhibition of growth at 10 µM
data = [
    ("COc1cc(/C=C2\\C[C@]3(C)[C@H]4CC=C5[C@@H]6CC(C)(C)C[C@@H](O)[C@]6(C(=O)O)CC[C@@]5(C)[C@]4(C)CC[C@H]3C(C)(C)C2=O)ccc1O", "%", "<", 10),
    ("CC(C)=CC(=O)O[C@@H]1CC(C)(C)C[C@H]2C3=CC[C@@H]4[C@@]5(C)CCC(=O)C(C)(C)[C@@H]5CC[C@@]4(C)[C@]3(C)CC[C@@]12C(=O)O", "%", "=", 20.4),
    ("CC1(C)C[C@@H](O)[C@]2(C(=O)O)CC[C@]3(C)C(=CC[C@@H]4[C@@]5(C)C/C(=C\\C=C\\c6ccccc6)C(=O)C(C)(C)[C@@H]5CC[C@]43C)[C@@H]2C1", "%", "=", 41.6),
    ("CC(C)=CC(=O)O[C@@H]1CC(C)(C)C[C@H]2C3=CC[C@@H]4[C@@]5(C)CC[C@H](O)C(C)(C)[C@@H]5CC[C@@]4(C)[C@]3(C)CC[C@@]12C(=O)O [Reduced Lantadene B]", "%", "=", 14.5),
]

----------
Test system: HCT-15
ASSAY TEXT: Growth inhibition of human HCT15 cells assessed as cell growth at 10^-7 M by sulforhodamine B assay
Format: functional
MEASUREMENT CONDITIONS: read-out: Activity
Friendly reminder: growth at 0.1 µM below 90% is yes, at or above is no.

# CHEM SMILES, LABEL VALUE
measured = [
    ("CC(C)=CC(=O)O[C@@H]1CC(C)(C)C[C@H]2C3=CC[C@@H]4[C@@]5(C)CCC(=O)C(C)(C)[C@@H]5CC[C@@]4(C)[C@]3(C)CC[C@@]12C(=O)O", "yes"),
    ("C/C=C(/C)C(=O)O[C@@H]1CC(C)(C)C[C@H]2C3=CC[C@@H]4[C@@]5(C)CC[C@H](O)C(C)(C)[C@@H]5CC[C@@]4(C)[C@]3(C)CC[C@@]12C(=O)O", "no"),
    ("CC(C)=CC(=O)O[C@@H]1CC(C)(C)C[C@H]2C3=CC[C@@H]4[C@@]5(C)CC[C@H](O)C(C)(C)[C@@H]5CC[C@@]4(C)[C@]3(C)CC[C@@]12C(=O)O", "yes"),
    ("C/C=C(/C)C(=O)O[C@@H]1CC(C)(C)C[C@H]2C3=CC[C@@H]4[C@@]5(C)CCC(=O)C(C)(C)[C@@H]5CC[C@@]4(C)[C@]3(C)CC[C@@]12C(=O)O", "no"),
    ("CC1(C)C[C@@H](O)[C@]2(C(=O)O)CC[C@]3(C)C(=CC[C@@H]4[C@@]5(C)C/C(=C\\C=C\\c6ccccc6)C(=O)C(C)(C)[C@@H]5CC[C@]43C)[C@@H]2C1", "no"),
]

----------
System: 786-0
ASSAY TEXT: Growth inhibition of human 786-0 cells by sulforhodamine B assay
Assay type: functional
MEASUREMENT CONDITIONS: read-out: GI50
Friendly reminder: GI50 below 3 µM is 1, at or above is -1.

# CHEM SMILES, LABEL VALUE
data = [
    ("CC1(C)C[C@@H](O)[C@]2(C(=O)O)CC[C@]3(C)C(=CC[C@@H]4[C@@]5(C)C/C(=C\\C=C\\c6ccccc6)C(=O)C(C)(C)[C@@H]5CC[C@]43C)[C@@H]2C1", -1),
    ("C/C=C(/C)C(=O)O[C@@H]1CC(C)(C)C[C@H]2C3=CC[C@@H]4[C@@]5(C)CCC(=O)C(C)(C)[C@@H]5CC[C@@]4(C)[C@]3(C)CC[C@@]12C(=O)O", -1),
    ("C/C=C(/C)C(=O)O[C@@H]1CC(C)(C)C[C@H]2C3=CC[C@@H]4[C@@]5(C)CC[C@H](O)C(C)(C)[C@@H]5CC[C@@]4(C)[C@]3(C)CC[C@@]12C(=O)O", 1),
    ("CC(C)=CC(=O)O[C@@H]1CC(C)(C)C[C@H]2C3=CC[C@@H]4[C@@]5(C)CCC(=O)C(C)(C)[C@@H]5CC[C@@]4(C)[C@]3(C)CC[C@@]12C(=O)O", -1),
]

----------
Test system: SK-MEL-2
ASSAY TEXT: Growth inhibition of human SK-MEL-2 cells by sulforhodamine B assay
Type: functional
MEASUREMENT CONDITIONS: read-out: pGI50 (converted)
Friendly reminder: GI50 below 3 µM is t, at or above is f.

# CHEM SMILES, LABEL VALUE
measured = [
    ("C/C=C(/C)C(=O)O[C@@H]1CC(C)(C)C[C@H]2C3=CC[C@@H]4[C@@]5(C)CC[C@H](O)C(C)(C)[C@@H]5CC[C@@]4(C)[C@]3(C)CC[C@@]12C(=O)O", "t"),
    ("CC(C)=CC(=O)O[C@@H]1CC(C)(C)C[C@H]2C3=CC[C@@H]4[C@@]5(C)CC[C@H](O)C(C)(C)[C@@H]5CC[C@@]4(C)[C@]3(C)CC[C@@]12C(=O)O", "f"),
    ("CC1(C)C[C@@H](O)[C@]2(C(=O)O)CC[C@]3(C)C(=CC[C@@H]4[C@@]5(C)C/C(=C\\C=C\\c6ccccc6)C(=O)C(C)(C)[C@@H]5CC[C@]43C)[C@@H]2C1", "t"),
    ("CC(C)=CC(=O)O[C@@H]1CC(C)(C)C[C@H]2C3=CC[C@@H]4[C@@]5(C)CCC(=O)C(C)(C)[C@@H]5CC[C@@]4(C)[C@]3(C)CC[C@@]12C(=O)O", "f"),
]
